- Tested on: TK-10 renal
- Test Description: NCI-60 one-dose screen, 48 h
- Condition Label: 10 µM unless noted
About 83,000 compounds went through this panel and 20% of them were active in at least one assay; those are over-represented in the sample as a whole. The source made the active and inactive calls. The calls were made as follows: active = growth percent below 10; inactive = the rest.
Outcomes you can answer with include only these: active, inactive

Test call for this molecule, please: COc1ccc(-c2nc(-c3cc(OC)cc(OC)c3)[nH]c2-c2ccc(OC)cc2)cc1
inactive

Recorded call for COc1ccc(-c2nsc3c2NC(=O)CC3c2cccc(F)c2)cc1 (stereo unspecified) ?
inactive

Dear all, I need the recorded test outcome for CNCCCNc1ccnc2cc(Cl)ccc12 , thank you.
active

I'd appreciate the recorded outcome for COc1ccccc1/C=N\NC(=S)Nc1ccc(F)cc1 from this test.
inactive

Would you mind telling me which call this test gave OC(c1cc2c(Cl)cc(Cl)cc2c2cc(C(F)(F)F)ccc12)C1CCCCN1 (stereo unspecified) ?
active

Fill in: this test's call for Cc1ccc(NC(=O)c2nc(S(C)=O)oc2-c2ccc(F)cc2)cc1Nc1nccc(-c2cccnc2)n1 (stereo unspecified) is ___
inactive

# lookup: test call for Cn1c(=O)c2[nH]c(Cc3ccc4c(c3)OCO4)nc2n(C)c1=O
inactive

Which result was noted for this molecule in the test: CC(C)CC(NC(=O)OCC1c2ccccc2-c2ccccc21)C(=O)O (stereo unspecified)
inactive

Dear colleague, could you share the recorded outcome for CN(C)c1ccc(C(c2ccccc2)c2ccc(N(C)C)cc2)cc1 when you have a moment?
inactive

Just curious, what result did COc1cc(C)cc2oc3oc(=O)c(-c4csc(-c5cc6ccccc6oc5=O)n4)cc3c(=O)c12 get here?
inactive

Which outcome did this test record for the molecule CN1CCN(Cc2ccc(NC(=O)c3cccc(C#Cc4cnc(N)c5ncccc45)c3F)cc2C(F)(F)F)CC1 ?
inactive

Record lookup: outcome of this test for c1ccc(-c2[nH]c3ccccc3c2-c2ccccc2)cc1 ?
inactive

For CCN(CC)C(Cl)=Nc1ccc(Cl)cc1 , which call appears in the assay record?
inactive

Dear all, I need the recorded test outcome for CCOC(=O)c1sc2nc(-c3cc4ccccc4o3)cc(-c3ccc(Cl)cc3)c2c1N , thank you.
inactive

Hello, I am checking results. What call was entered for Cc1ccc(/C=C/C(=N/N=C(N)N)c2ccccc2)cc1 ?
inactive

Outcome? CCN(CC)CCCC(C)Nc1cnc(C(=O)Nc2ccc(Cl)c3cccnc23)cn1 (stereo unspecified)
inactive

Hi, do you know how Nc1nc2ccc([C@@H]3Nc4ccc5[nH]ncc5c4[C@H]4[C@H]5CCC(C5)[C@H]43)cc2s1 came out in this test?
inactive

Please indicate how the test categorized Cn1c(=O)c2c3c(oc2c2ccccc21)C(=O)c1ccccc1C3=O .
inactive

Write down the call the test reported for this molecule. Item: COc1c(B(O)O)cccc1-c1nc2c(F)cc3n[nH]c(C)c3c2c2c1CCCC2
active

Per the assay record, what outcome was assigned to C#CC[C@@H]1C[C@]2(C)[C@H]3CC[C@@H]4[C@H]5C(C(=C)C)CC[C@]5(C(=O)NCCCCCCCCN)CC[C@@]4(C)[C@]3(C)CC[C@H]2C(C)(C)[C@H]1OC(C)=O (stereo partly specified) ?
inactive

Which outcome was entered for the molecule N#Cc1c(NN)n(C2OC(CO)C(O)C2O)c2ncnc(N)c12 (stereo unspecified) in this test?
inactive

###

- System: MOLT-4 leukemia
- Test Description: NCI-60 one-dose screen, 48 h (100 = growth as untreated, 0 = no growth, -100 = all killed)
- Condition Label: 10 µM unless noted
About 83,000 compounds went through this panel and 20% of them were active in at least one assay; those are over-represented in the sample as a whole.
For each entry below, report its growth value.
Give just the numeric value; % need not be written.

Specify reported growth for the molecule shown: CCCCN(CCCC)CCC(O)c1cc2ccc(C(F)(F)F)cc2c2cc(C(F)(F)F)ccc12 (configuration not stated)
28.7

Please indicate growth recorded for C=C(C)c1ccc(/C=N/NC(N)=S)cc1
75.3

Report measured growth; entry is CC1=C(C(=O)Nc2ccc(F)cc2)C(c2ccccc2)C2=C(CC(C)(C)CC2=O)N1 (configuration not stated)
62.9

Indicate the recorded growth value for this molecule: COc1cccc(CC(C)=C(c2ccc(OCCCN(C)C)cc2)c2ccc(OCCCN(C)C)cc2)c1
-61.4

Fill in reported growth for this entry: CCCCn1c(C)nc2ccc(Nc3nc(Cl)nc4nc[nH]c34)cc21
37.9

Supply recorded growth for CN1CCN(Cc2ccc(NC(=O)c3cncc(C#Cc4ncc5ccccn45)c3)cc2C(F)(F)F)CC1 here.
17.8

Determine from records and report growth for CC1=C(C(=O)Nc2ccc(F)cc2)C(c2ccc(Cl)cc2)C2=C(CC(C)(C)CC2=O)N1 (configuration not stated)
73.1

Tell us which growth value is on record for COc1cccc(NC(=O)[C@H](C(C)C)n2c(=O)[nH]c3ccccc3c2=O)c1
96.8

Return reported growth. Input molecule: Cc1cc(C)c2c(NC(=O)Nc3ccc(Cl)c(Cl)c3)n[nH]c2n1
98.3

Tell me growth reported for COc1ccc(/C=C/C(=O)c2ccc(NC(=O)CSc3nnc(-c4ccc(Cl)cc4)n3-c3ccccc3)cc2)cc1
65.5

Give a short answer stating reported growth for CCOP(=O)(O)OP(=O)(O)OCC .
87.1

Note down growth recorded for NC(N)=N/N=C\c1ccc(OCc2ccccc2)cc1
73.8
